Target: [35S]-TBPS binding in rat brain cortical membranes
Assay: Steroid inhibition of [35S]-TBPS binding, rat brain cortical membranes
Conditions: 3 nM [35S]-TBPS, in the presence of 5 μM GABA, read-out: 35S-TBPS Radioligand Displacement (IC50)
measuredMetric: IC50

compound: COC[C@]12CC[C@@](C)(O)C[C@@H]1CC[C@H]1[C@@H]3CC[C@H](C(=O)CN4CCN(C)CC4)[C@@]3(C)CC[C@@H]12 [Compound 8]
measuredMetric: IC50
readoutValue: > 500 nM

compound: COC[C@]12CC[C@@](C)(O)C[C@@H]1CC[C@H]1[C@@H]3CC[C@H](C(=O)Cn4nc5ccc(Cl)cc5n4)[C@@]3(C)CC[C@@H]12 [Compound 35]
measuredMetric: IC50
readoutValue: 10 to 50 nM

compound: COC[C@]12CC[C@@](C)(O)C[C@@H]1CC[C@H]1[C@@H]3CC[C@H](C(=O)Cn4cc5nccnc5n4)[C@@]3(C)CC[C@@H]12 [Compound 103]
measuredMetric: IC50
readoutValue: > 500 nM

Origin of values: patent US12071453B2
